Target Desc: Muscarinic acetylcholine receptor M4 (Homo sapiens, UniProt P08173)
Sequence (P08173 whole entry): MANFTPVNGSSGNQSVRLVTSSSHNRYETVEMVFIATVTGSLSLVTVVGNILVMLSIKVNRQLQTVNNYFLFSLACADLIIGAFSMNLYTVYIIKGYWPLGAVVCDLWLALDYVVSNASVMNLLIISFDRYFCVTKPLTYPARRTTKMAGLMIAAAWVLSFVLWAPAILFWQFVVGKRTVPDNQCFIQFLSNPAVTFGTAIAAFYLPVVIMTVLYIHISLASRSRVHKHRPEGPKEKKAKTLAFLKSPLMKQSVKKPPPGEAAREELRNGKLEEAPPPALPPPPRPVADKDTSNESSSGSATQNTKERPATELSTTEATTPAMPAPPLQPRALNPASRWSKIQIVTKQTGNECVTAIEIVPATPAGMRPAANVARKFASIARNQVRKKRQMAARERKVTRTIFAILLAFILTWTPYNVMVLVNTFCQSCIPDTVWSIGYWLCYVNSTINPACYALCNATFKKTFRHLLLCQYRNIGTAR
Test Details: Antagonist activity at human muscarinic acetylcholine M4 receptor expressed in CHO cells assessed as inhibition of acetylcholine-induced calcium mobilization
Type: functional, cell-based
Experimental Setup: read-out: IC50
Readout Name: pIC50
API: returns pIC50 as number; meaning -log10 of concentration in mol/L.

Known results for compounds:
Q) # return recorded pIC50 for input [2H]C([2H])(C1CCOCC1)N1C[C@H]2C[C@H](Nc3ccc(-c4cc(F)cc(F)c4F)nn3)C[C@H]2C1
A) 8.35

Q) # return recorded pIC50 for input c1ccc(-c2ccc(N[C@H]3C[C@@H]4CN(CC5CCOCC5)C[C@@H]4C3)nn2)cc1
A) 8.55

Q) # return recorded pIC50 for input Fc1ccc(-c2ccc(N[C@H]3C[C@@H]4CN(CC5CCOCC5)C[C@@H]4C3)nn2)cc1
A) 8.11

Q) # return recorded pIC50 for input Fc1ccc(Cl)c(-c2ccc(N[C@H]3C[C@@H]4CN(CC5CCOCC5)C[C@@H]4C3)nn2)c1
A) 9.23

Q) # return recorded pIC50 for input CC(=O)Nc1ccc(-c2ccc(N[C@H]3C[C@@H]4CN(CC5CCOCC5)C[C@@H]4C3)nn2)cc1
A) 8.82

Others:
Q) # return recorded pIC50 for input Fc1ccc(F)c(-c2ccc(N[C@H]3C[C@@H]4CN(CC5CCOCC5)C[C@@H]4C3)nn2)c1
A) 8.77

Q) # return recorded pIC50 for input [2H]C([2H])(C1CCOCC1)N1C[C@H]2C[C@H](Nc3ccc(-c4cc(F)ccc4Cl)nn3)C[C@H]2C1
A) 9.37

Q) # return recorded pIC50 for input Fc1cc(F)c(F)c(-c2ccc(N[C@H]3C[C@@H]4CN(CC5CCOCC5)C[C@@H]4C3)nn2)c1
A) 8.39
